# system_tested: α4β1 integrin receptor (Homo sapiens, UniProt P05556+P13612)
# Construct: Ramos Cell Adhesion Assay (α4β1 Mediated Adhesion/VCAM-1); endogenous in cells; host or cells: Ramos cells
# Sequence (P13612 34-1032): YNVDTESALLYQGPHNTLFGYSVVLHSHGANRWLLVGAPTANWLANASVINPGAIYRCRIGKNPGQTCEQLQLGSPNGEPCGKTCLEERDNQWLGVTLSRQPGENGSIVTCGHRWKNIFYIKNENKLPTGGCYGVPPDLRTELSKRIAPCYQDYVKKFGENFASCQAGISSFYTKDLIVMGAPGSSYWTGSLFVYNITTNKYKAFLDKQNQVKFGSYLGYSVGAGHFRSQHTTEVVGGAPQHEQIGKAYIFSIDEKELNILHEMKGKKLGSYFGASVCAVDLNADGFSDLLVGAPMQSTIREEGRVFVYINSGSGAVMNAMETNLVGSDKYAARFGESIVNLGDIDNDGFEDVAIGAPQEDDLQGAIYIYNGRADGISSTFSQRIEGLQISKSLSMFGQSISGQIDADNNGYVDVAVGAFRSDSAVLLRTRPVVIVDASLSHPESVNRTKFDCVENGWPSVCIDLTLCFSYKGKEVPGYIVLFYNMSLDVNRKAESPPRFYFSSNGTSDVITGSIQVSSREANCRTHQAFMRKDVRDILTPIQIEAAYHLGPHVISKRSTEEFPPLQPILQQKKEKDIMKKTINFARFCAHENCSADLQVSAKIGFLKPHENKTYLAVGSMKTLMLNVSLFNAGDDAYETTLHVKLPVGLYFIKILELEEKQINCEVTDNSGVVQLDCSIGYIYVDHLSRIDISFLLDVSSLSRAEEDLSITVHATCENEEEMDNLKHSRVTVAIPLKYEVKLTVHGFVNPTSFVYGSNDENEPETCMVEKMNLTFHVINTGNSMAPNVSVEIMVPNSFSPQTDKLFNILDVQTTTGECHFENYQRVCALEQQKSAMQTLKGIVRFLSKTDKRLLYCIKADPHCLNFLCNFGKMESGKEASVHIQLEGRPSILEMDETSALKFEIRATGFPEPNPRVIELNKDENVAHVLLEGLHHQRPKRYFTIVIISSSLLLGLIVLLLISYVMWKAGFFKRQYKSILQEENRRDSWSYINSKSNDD
# Sequence (P05556 21-798): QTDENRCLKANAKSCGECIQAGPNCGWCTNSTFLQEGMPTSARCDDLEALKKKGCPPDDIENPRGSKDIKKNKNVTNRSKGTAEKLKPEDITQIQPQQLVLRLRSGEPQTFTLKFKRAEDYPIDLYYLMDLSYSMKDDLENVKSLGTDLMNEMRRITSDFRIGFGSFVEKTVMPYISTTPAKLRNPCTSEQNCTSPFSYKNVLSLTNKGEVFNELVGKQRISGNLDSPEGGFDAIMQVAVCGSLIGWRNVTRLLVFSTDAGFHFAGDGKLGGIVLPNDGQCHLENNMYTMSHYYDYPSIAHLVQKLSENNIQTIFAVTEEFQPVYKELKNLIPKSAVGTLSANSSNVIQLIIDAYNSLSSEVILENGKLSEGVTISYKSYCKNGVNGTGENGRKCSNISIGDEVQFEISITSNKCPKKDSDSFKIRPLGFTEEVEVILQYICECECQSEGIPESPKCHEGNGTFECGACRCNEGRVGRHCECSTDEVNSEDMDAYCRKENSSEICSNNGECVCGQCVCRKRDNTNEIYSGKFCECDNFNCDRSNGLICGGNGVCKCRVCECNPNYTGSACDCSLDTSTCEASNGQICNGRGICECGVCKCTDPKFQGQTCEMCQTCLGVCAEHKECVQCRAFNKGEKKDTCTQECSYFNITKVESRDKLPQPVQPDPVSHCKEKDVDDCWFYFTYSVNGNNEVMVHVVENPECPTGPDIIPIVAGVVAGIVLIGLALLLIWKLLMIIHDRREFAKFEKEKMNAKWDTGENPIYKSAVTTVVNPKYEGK
# measurement_description: Ramos Cell Adhesion Assay (α4β1 Mediated Adhesion/VCAM-1)
# Format: cell-based
# study_conditions: Table I; racemic mixtures and resolved (S,S) and (R,S) diastereomers; read-out: Antagonist IC50 Activity α4β1
pIC50: −log10 of the molar value.
Classify as follows. Reported pIC50 greater than or equal to 7: Condition met. Reported pIC50 below: Condition not met.

Use the examples below as a reference point.
[[record]]
compound = "O=C(Nc1ccc(C[C@H](NC(=O)[C@H]2C3CCC(C3)N2S(=O)(=O)c2ccccc2)C(=O)O)cc1)c1c(Cl)cccc1Cl (some centres unmarked) [Cpd 16b]"
class = "Condition not met"

[[record]]
compound = "COc1cccc(OC)c1C(=O)Nc1ccc(C[C@H](NC(=O)[C@@H]2C3CCC(C3)N2S(=O)(=O)c2ccccc2)C(=O)O)cc1 (some centres unmarked) [Cpd 19a]"
class = "Condition not met"


Exercise: Could you verify whether the entry O=C(Nc1ccc(C[C@H](NC(=O)C2C3CCC(CC3)N2S(=O)(=O)c2cccs2)C(=O)O)cc1)c1c(Cl)cncc1Cl (mixture of isomers) shows pIC50 of no less than 7?
Solution: Condition met

Exercise: Same read-out for O=C(Nc1ccc(C[C@H](NC(=O)C2C3CCC(CC3)N2S(=O)(=O)c2ccccc2)C(=O)O)cc1)c1c(Cl)cccc1Cl (mixture of isomers) ?
Solution: Condition met

====

# system_tested: human α4β7 (Homo sapiens, UniProt P13612+P26010)
# Construct: expressed in transfected cells
# Sequence (P26010 20-798, one chain of several): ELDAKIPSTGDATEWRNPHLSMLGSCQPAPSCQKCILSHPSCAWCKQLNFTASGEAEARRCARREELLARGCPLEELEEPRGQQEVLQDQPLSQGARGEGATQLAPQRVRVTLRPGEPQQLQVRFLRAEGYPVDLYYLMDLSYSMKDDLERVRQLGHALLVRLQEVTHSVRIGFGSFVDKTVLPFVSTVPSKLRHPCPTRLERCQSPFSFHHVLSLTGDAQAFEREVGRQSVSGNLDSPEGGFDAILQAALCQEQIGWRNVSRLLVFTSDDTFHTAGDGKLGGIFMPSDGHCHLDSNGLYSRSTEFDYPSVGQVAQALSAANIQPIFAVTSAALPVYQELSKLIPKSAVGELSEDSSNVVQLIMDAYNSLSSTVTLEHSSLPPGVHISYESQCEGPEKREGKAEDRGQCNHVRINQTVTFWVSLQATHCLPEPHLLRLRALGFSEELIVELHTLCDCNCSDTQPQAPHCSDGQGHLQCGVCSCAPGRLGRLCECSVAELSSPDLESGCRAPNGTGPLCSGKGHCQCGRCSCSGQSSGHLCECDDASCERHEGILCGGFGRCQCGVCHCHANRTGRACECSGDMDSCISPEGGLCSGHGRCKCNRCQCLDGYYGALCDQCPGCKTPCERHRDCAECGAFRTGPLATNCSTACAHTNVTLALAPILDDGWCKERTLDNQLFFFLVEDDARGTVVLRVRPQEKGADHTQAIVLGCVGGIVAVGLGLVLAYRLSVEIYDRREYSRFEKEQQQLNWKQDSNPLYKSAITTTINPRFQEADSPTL
# measurement_description: α4β7-K562 Cell Adhesion Assay (α4β7 Mediated Adhesion/VCAM-1)
# Assay type: cell-based
# study_conditions: Table IV; μM; read-out: Inhibition of Binding of K562 Cells to Immobilized VCAM-1 IC50
# Protocol: α4β7-K562 Cell Adhesion Assay (α4β7 Mediated Adhesion/VCAM-1) Immulon 96 well plates (Dynex) were coated with 100 μL recombinant hVCAM-1 at 4.0 μg/mL in 0.05 M NaCO3 buffer pH 9.0 overnight at 4° C. (R&D Systems). Plates were washed 3 times in PBS with 1% BSA and blocked for 1 h @ room temperature in this buffer. PBS was removed and compounds to be tested (50 μL) were added at 2× concentration. […] The plate was read at 485 nm excitation and 530 nm emission.
Consider the following molecules and their measured IC50 readings.

[[record]]
molecule = "Cc1ccc(S(=O)(=O)N2C3CCC(CC3)C2C(=O)N[C@@H](Cc2ccc(NC(=O)c3ccccc3C)cc2)C(=O)O)cc1 (stereo partly drawn)"
readout_name = "IC50"
result = "> 5 µM"


Exercise: Which measured IC50 value corresponds to Cc1ccc(S(=O)(=O)N2C3CCC(CC3)C2C(=O)N[C@@H](Cc2ccc(OCc3ccccc3)cc2)C(=O)O)cc1 (stereo partly drawn) ?
Solution: > 10 µM

Exercise: Same read-out for O=C(O)[C@H](Cc1ccc(OCc2c(Cl)cccc2Cl)c(F)c1)NC(=O)[C@@H]1C2CCC(CC2)N1S(=O)(=O)c1ccccc1 [Cpd 62a] ?
Solution: > 10 µM

====

# system_tested: human α4β7 (Homo sapiens, UniProt P13612+P26010)
# Construct: expressed in transfected cells
# measurement_description: α4β7-K562 Cell Adhesion Assay (α4β7 Mediated Adhesion/VCAM-1)
# Format: cell-based
# study_conditions: Table I; racemic mixtures and resolved (S,S) and (R,S) diastereomers; read-out: Antagonist IC50 Activity α4β7
readout_name: IC50 (nM)
Please give a number only; it is taken to be in nM.

Illustrative cases are given below, each with its answer.
[[record]]
molecule = "COc1cccc(OC)c1-c1ccc(C[C@H](NC(=O)C2C3CCC(CC3)N2S(=O)(=O)c2ccc(C)cc2)C(=O)O)cc1 (mixture of isomers)"
readout_name = "IC50"
number = 210

[[record]]
molecule = "O=C(Nc1ccc(C[C@H](NC(=O)C2C3CCC(CC3)N2S(=O)(=O)c2cccs2)C(=O)O)cc1)c1c(Cl)cncc1Cl (mixture of isomers)"
readout_name = "IC50"
number = 30

[[record]]
molecule = "O=C(Nc1ccc(C[C@H](NC(=O)[C@@H]2C3CCC(C3)N2S(=O)(=O)c2ccccc2)C(=O)O)cc1)c1c(Cl)cccc1Cl (stereo partly drawn) [Cpd 16a]"
readout_name = "IC50"
number = 2090

[[record]]
molecule = "O=C(Nc1ccc(C[C@H](NC(=O)[C@H]2C3CCC(C3)N2S(=O)(=O)c2ccccc2)C(=O)O)cc1)c1c(Cl)cccc1Cl (stereo partly drawn) [Cpd 16b]"
readout_name = "IC50"
number = 393

[[record]]
molecule = "O=C(O)[C@H](Cc1ccc(N2C(=O)c3ccccc3C2=O)cc1)NC(=O)[C@@H]1C2CCC(CC2)N1S(=O)(=O)c1ccccc1 [Cpd 47a]"
readout_name = "IC50"
number = 102


Next up:
Exercise: Which measured IC50 value corresponds to `O=C(Nc1ccc(C[C@H](NC(=O)[C@H]2C3CCC(CC3)N2S(=O)(=O)c2ccccc2)C(=O)O)cc1)c1c(Cl)cccc1Cl` ?
Solution: 421

====

# system_tested: α4β1 integrin receptor (Homo sapiens, UniProt P05556+P13612)
# Construct: Ramos Cell Adhesion Assay (α4β1 Mediated Adhesion/VCAM-1); endogenous in cells; host or cells: Ramos cells
# measurement_description: Ramos Cell Adhesion Assay (α4β1 Mediated Adhesion/VCAM-1)
# Type: cell-based
# study_conditions: Table I; racemic mixtures and resolved (S,S) and (R,S) diastereomers; read-out: Antagonist IC50 Activity α4β1
Doc: threshold 200 nM (exclusive). Items with IC50 beneath it return rule met; others return rule not met.

Use the examples below as a reference point.
[[record]]
compound = "O=C(Nc1ccc(C[C@H](NC(=O)[C@@H]2C3CCC(CC3)N2S(=O)(=O)c2ccccc2)C(=O)O)cc1)c1c(Cl)cccc1Cl"
system_tested = "α4β1 integrin receptor (Homo sapiens, UniProt P05556+P13612)"
class = "rule met"

[[record]]
compound = "O=C(N[C@@H](Cc1ccc(N2C(=O)c3ccccc3C2=O)cc1)C(=O)O)C1C2CCC(CC2)N1S(=O)(=O)c1ccccc1 (mixture of isomers)"
system_tested = "α4β1 integrin receptor (Homo sapiens, UniProt P05556+P13612)"
class = "rule met"

[[record]]
compound = "COc1cccc(OC)c1-c1ccc(C[C@H](NC(=O)[C@H]2C3CCC(CC3)N2S(=O)(=O)c2ccc(C)cc2)C(=O)O)cc1 [Cpd 18a]"
system_tested = "α4β1 integrin receptor (Homo sapiens, UniProt P05556+P13612)"
class = "rule not met"

[[record]]
compound = "COc1cccc(OC)c1-c1ccc(C[C@H](NC(=O)C2C3CCC(CC3)N2S(=O)(=O)c2ccc(C)cc2)C(=O)O)cc1 (mixture of isomers)"
system_tested = "α4β1 integrin receptor (Homo sapiens, UniProt P05556+P13612)"
class = "rule met"

[[record]]
compound = "O=C(Nc1ccc(C[C@H](NC(=O)[C@@H]2C3CCC(C3)N2S(=O)(=O)c2ccccc2)C(=O)O)cc1)c1c(Cl)cccc1Cl (stereo partly drawn) [Cpd 16a]"
system_tested = "α4β1 integrin receptor (Homo sapiens, UniProt P05556+P13612)"
class = "rule met"


Exercise: Lab log: compare recorded IC50 with 200 nM; is it strictly lower for O=C(Nc1ccc(C[C@H](NC(=O)[C@H]2C3CCC(C3)N2S(=O)(=O)c2ccccc2)C(=O)O)cc1)c1c(F)cccc1F (stereo partly drawn) ?
Solution: rule not met

====

Consider the following compounds and their measured IC50 readings.
# system_tested: human α4β7 (Homo sapiens, UniProt P13612+P26010)
# Construct: expressed in transfected cells
# measurement_description: α4β7-K562 Cell Adhesion Assay (α4β7 Mediated Adhesion/VCAM-1)
# Format: cell-based
# study_conditions: Table IV; μM; read-out: Inhibition of Binding of K562 Cells to Immobilized VCAM-1 IC50

Illustrative cases are given below, each with its answer.
[[record]]
compound = "CC(C)(C)c1ccc(C[C@H](NC(=O)C2C3CCC(CC3)N2S(=O)(=O)c2ccccc2)C(=O)O)cc1 (stereo partly shown) [Cpd 58]"
readout_name = "IC50"
result = "> 10 µM"

[[record]]
compound = "CC(C)(C)Oc1ccc(C[C@H](NC(=O)C2C3CCC(CC3)N2S(=O)(=O)c2ccccc2)C(=O)O)cc1 (stereo partly shown) [Cpd 45]"
readout_name = "IC50"
result = "> 10 µM"

[[record]]
compound = "CC1(C)C(C(=O)Nc2ccc(C[C@H](NC(=O)[C@@H]3C4CCC(CC4)N3S(=O)(=O)c3ccccc3)C(=O)O)cc2)C1(C)C [Cpd 68]"
readout_name = "IC50"
result = "> 50 µM"


Exercise: Which measured IC50 value corresponds to COc1ccc(OC)c(C(=O)c2ccc(C(=O)Nc3ccc(C[C@H](NC(=O)C4C5CCC(CC5)N4S(=O)(=O)c4ccc(C)cc4)C(=O)O)cc3)cc2)c1 (stereo partly shown) [Cpd 26] ?
Solution: > 10 µM
